Target: BRAF G469A (Homo sapiens, UniProt P15056, G469A)
Construct: Horizon Discovery (HCT-116 BRAF−/− cells); host or cells: HCT-116 BRAF−/− cells, clone 34, lentiviral transduction
Sequence (P15056 whole entry G469A): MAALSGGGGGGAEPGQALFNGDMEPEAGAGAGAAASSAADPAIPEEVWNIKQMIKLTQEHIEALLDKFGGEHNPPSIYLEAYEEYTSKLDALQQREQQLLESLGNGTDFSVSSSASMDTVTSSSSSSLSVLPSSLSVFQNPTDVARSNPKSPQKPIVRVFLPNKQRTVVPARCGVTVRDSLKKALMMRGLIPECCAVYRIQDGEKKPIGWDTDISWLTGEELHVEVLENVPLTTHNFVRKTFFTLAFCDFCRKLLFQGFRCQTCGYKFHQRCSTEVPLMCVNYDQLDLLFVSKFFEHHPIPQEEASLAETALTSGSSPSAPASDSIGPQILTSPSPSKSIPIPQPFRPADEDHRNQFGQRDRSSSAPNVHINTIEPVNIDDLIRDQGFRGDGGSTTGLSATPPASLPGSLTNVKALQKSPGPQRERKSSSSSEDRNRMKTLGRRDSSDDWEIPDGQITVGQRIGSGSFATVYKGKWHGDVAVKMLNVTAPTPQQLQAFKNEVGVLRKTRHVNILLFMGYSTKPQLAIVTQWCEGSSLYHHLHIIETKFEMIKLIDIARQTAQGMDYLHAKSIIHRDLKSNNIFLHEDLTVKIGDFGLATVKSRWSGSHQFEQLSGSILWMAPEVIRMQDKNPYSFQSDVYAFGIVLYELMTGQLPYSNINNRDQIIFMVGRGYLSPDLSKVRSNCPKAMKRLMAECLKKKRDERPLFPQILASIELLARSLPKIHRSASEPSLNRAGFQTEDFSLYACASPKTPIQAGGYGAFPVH
Assay: BRAF HiBiT degradation assay, C-terminal HiBiT-tagged BRAF G469A overexpressed in HCT-116 BRAF−/− cells (clone 34), Nano-Glo HiBiT Lytic assay
Type: cell-based
Conditions: HCT-116; Class 2; BRAF G469A; percentage protein degraded at maximal compound effect relative to DMSO
Measure Name: Dmax

API: value(readout=Dmax, system=BRAF G469A (Homo sapiens, UniProt P15056, G469A)) for record CCCS(=O)(=O)Nc1cccc(-c2nc(C(C)(C)C)sc2-c2ccnc(Nc3cnn(CC4CCN(C(=O)[C@H]5CC[C@H](Oc6ccc(C7CCC(=O)NC7=O)cc6)CC5)CC4)c3)n2)c1F (mixture of isomers)
< 30%

Param readout= Dmax; system= BRAF G469A (Homo sapiens, UniProt P15056, G469A); entry= CCCS(=O)(=O)Nc1cccc(-c2cn(C3CCN(C(=O)C4CCN(C(=O)C5CCN(c6ccc(C7CCC(=O)NC7=O)cn6)CC5)CC4)CC3)nc2-c2ccncc2)c1F (racemic) ; returns value.
30 to 70%

Consider the additional molecule presented here.
Please provide the recorded Dmax for CCCS(=O)(=O)Nc1cccc(-c2nc(C(C)(C)C)sc2-c2ccnc(NC3CC4(C3)CN(C(=O)C3(F)CCN(CC5CCN(c6ccc(C7CCC(=O)NC7=O)cc6)CC5)CC3)C4)n2)c1F (racemic) , tested on BRAF G469A (Homo sapiens, UniProt P15056, G469A).
< 30%

----------
Target: BRAF G466V (Homo sapiens, UniProt P15056, G466V)
Construct: Horizon Discovery (HCT-116 BRAF−/− cells); host or cells: HCT-116 BRAF−/− cells, clone 8, lentiviral transduction
Sequence (P15056 whole entry G466V): as the sequence (P15056 whole entry G469A) above, with G466V, A469G counted along it
Test: BRAF HiBiT degradation assay, C-terminal HiBiT-tagged BRAF G466V overexpressed in HCT-116 BRAF−/− cells (clone 8), Nano-Glo HiBiT Lytic assay
Type: cell-based
Settings: BRAF G466V; DC50 at 50%: fitted conc. at Y=50
Measure Name: DC50

What value of DC50 has been recorded for this entry: CCCS(=O)(=O)Nc1cccc(-c2cn(-c3ccc(C4CCN(CC5CCN(c6ccc(C7CCC(=O)NC7=O)cc6F)CC5)CC4)cc3)nc2-c2ccncc2)c1F (racemic) [Compound 22]
50 to 500 nM

Recorded DC50 of CCN(C)S(=O)(=O)Nc1cccc(-c2nc(C3CCN(C(=O)C4CCN(C(=O)C5CCN(c6ccc(C7CCC(=O)NC7=O)cn6)CC5)CC4)CC3)sc2-c2ccnc(N)n2)c1F (racemic) [Compound 209] , please.
< 10 nM

Looking for the measured DC50 of CCCS(=O)(=O)Nc1cccc(-c2nc(C(C)(C)C)sc2-c2ccnc(Nc3ccc(N4CCN(C(=O)CN5CCc6cc(C7CCC(=O)NC7=O)ccc6C5)CC4)c(F)c3)n2)c1F (racemic) [Compound 51] , can you help?
50 to 500 nM

Others:
Fill blank: measured DC50 of the compound CCCS(=O)(=O)Nc1cccc(-c2nc(C(C)(C)C)sc2-c2ccnc(Nc3ccc(C4CCN(CC[C@H]5CCN(c6ccc(C7CCC(=O)NC7=O)cn6)C5)CC4)cc3)n2)c1F (mixture of isomers) [Compound 173] is ____.
> 500 nM

----------
Items are presented alongside their recorded Dmax.
Target: BRAF D594G (Homo sapiens, UniProt P15056, D594G)
Construct: Horizon Discovery (HCT-116 BRAF−/− cells); host or cells: HCT-116 BRAF−/− cells, clone 63, lentiviral transduction
Sequence (P15056 whole entry D594G): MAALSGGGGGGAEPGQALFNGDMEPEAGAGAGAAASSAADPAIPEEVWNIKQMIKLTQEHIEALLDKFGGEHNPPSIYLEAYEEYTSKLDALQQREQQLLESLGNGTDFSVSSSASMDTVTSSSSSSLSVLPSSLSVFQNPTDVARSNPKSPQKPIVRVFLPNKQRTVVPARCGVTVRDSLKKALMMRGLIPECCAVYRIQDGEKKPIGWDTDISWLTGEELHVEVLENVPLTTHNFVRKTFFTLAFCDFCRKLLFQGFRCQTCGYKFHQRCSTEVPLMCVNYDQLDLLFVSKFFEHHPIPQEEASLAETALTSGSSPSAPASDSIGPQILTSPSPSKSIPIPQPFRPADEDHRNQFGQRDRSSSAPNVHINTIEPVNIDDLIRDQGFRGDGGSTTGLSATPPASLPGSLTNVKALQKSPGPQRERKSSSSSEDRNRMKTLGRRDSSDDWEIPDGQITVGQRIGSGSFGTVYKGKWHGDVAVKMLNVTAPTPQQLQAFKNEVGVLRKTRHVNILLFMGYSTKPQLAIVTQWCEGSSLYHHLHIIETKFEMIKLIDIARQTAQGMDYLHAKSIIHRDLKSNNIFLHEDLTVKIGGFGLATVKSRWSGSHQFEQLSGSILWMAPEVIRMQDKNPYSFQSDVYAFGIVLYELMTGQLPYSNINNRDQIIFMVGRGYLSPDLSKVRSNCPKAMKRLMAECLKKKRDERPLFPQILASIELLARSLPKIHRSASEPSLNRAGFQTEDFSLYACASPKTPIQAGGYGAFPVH
Assay: BRAF HiBiT degradation assay, C-terminal HiBiT-tagged BRAF D594G overexpressed in HCT-116 BRAF−/− cells (clone 63), Nano-Glo HiBiT Lytic assay
Format: cell-based
Conditions: BRAF D594G (Class 3), HCT-116 BRAF−/− cells; observed Dmax relative to DMSO control

Field: example entries. Status: answers known.
Quick check: Dmax of CCC(C)S(=O)(=O)Nc1cc(Cl)cc(-c2cn(-c3ccc(N4CCN(CC5CCN(c6ccc([C@H]7CCC(=O)NC7=O)cc6)CC5)CC4)cc3)nc2-c2ccncc2)c1F (mixture of isomers) ?
30 to 70%

For the molecule C[C@@H]1CN(c2ccc(-n3cc(-c4cc(Cl)cc(NS(=O)(=O)N5CC[C@@H](F)C5)c4F)c(-c4ccncc4)n3)nc2)CCN1CC1CCN(c2ccc([C@H]3CCC(=O)NC3=O)cc2)CC1 , what Dmax is on record?
> 70%

Others:
I'd like to know its Dmax. The molecule in question is O=C1CC[C@@H](c2ccc(N3CCC(CN4CCN(c5ccc(-n6cc(-c7cc(Cl)cc(NS(=O)(=O)N8CCCC8)c7F)c(-c7ccncc7)n6)nc5)CC4)CC3)nc2)C(=O)N1
> 70%

----------
Target: BRAF D594G (Homo sapiens, UniProt P15056, D594G)
Construct: Horizon Discovery (HCT-116 BRAF−/− cells); host or cells: HCT-116 BRAF−/− cells, clone 63, lentiviral transduction
Assay: BRAF HiBiT degradation assay, C-terminal HiBiT-tagged BRAF D594G overexpressed in HCT-116 BRAF−/− cells (clone 63), Nano-Glo HiBiT Lytic assay
Format: cell-based
Settings: BRAF D594G; DC50 at 50%: fitted conc. at Y=50
DC50 by entry:

Study these solved cases before continuing.
Notebook: pull reported DC50 for BRAF D594G (Homo sapiens, UniProt P15056, D594G), entry CCCS(=O)(=O)Nc1cccc(-c2nc(C3CCN(C(=O)C4CCN(CC5CCN(c6ccc(C7CCC(=O)NC7=O)cn6)CC5)CC4)CC3)sc2-c2ccncn2)c1F (racemic) [Compound 221]
> 500 nM

What measured DC50 is associated with CCCS(=O)(=O)Nc1cccc(-c2nc(C(C)(C)C)sc2-c2ccnc(Nc3ccc(N4CCN(CC5CCN(c6ccc([C@@H]7CCC(=O)NC7=O)cc6)CC5)CC4)cc3)n2)c1F [Compound 58] on BRAF D594G (Homo sapiens, UniProt P15056, D594G)?
> 500 nM

// lookup DC50 | system=BRAF D594G (Homo sapiens, UniProt P15056, D594G) | key= CCCS(=O)(=O)Nc1cccc(-c2nc(C3CCN(C(=O)C4CCN(C(=O)C5CCN(c6ccc(C7CCC(=O)NC7=O)cn6)CC5)CC4)CC3)sc2-c2ccnc(NC3CC3)n2)c1F (racemic) [Compound 198]
< 10 nM

Kindly review the next compound as well.
Form: Entry = CCCS(=O)(=O)Nc1cccc(-c2nc(C(C)(C)C)sc2-c2ccnc(Nc3ccc(N4CCN(C(=O)[C@@H]5CCN(c6ccc([C@H]7CCC(=O)NC7=O)cn6)C5)CC4)c(F)c3)n2)c1F (racemic) [Compound 49] | System = BRAF D594G (Homo sapiens, UniProt P15056, D594G) | DC50 = ____
> 500 nM

----------
Some molecules, each annotated with its measured DC50.
Molecular target: BRAF D594G (Homo sapiens, UniProt P15056, D594G)
Construct: Horizon Discovery (HCT-116 BRAF−/− cells); host or cells: HCT-116 BRAF−/− cells, clone 63, lentiviral transduction
Experiment: BRAF HiBiT degradation assay, C-terminal HiBiT-tagged BRAF D594G overexpressed in HCT-116 BRAF−/− cells (clone 63), Nano-Glo HiBiT Lytic assay
Assay type: cell-based
Conditions: BRAF D594G; DC50 at 50%: fitted conc. at Y=50

Some solved entries appear below for comparison.
Please report the recorded DC50 for CCN(C)S(=O)(=O)Nc1cccc(-c2nc(C(C)(C)C)sc2-c2ccnc(Nc3ccc(N4CCN(C(=O)[C@H]5CC[C@H](CN6CCc7cc(C8CCC(=O)NC8=O)ccc7C6)CC5)CC4)cn3)n2)c1F (mixture of isomers) .
> 500 nM

Which DC50 is reported for this molecule? CCCS(=O)(=O)Nc1cccc(-c2nc(C(C)(C)C)sc2-c2ccnc(NC3CC4(CCN(CC5CCN(c6ccc7c(=O)n(C8CCC(=O)NC8=O)ccc7c6)CC5)CC4)C3)n2)c1F (racemic)
> 500 nM

Fill in: DC50 of CCCS(=O)(=O)Nc1cccc(-c2nc(C(C)(C)C)sc2-c2ccnc(Nc3cccc(OC4CCN(C(=O)C[C@@H]5CCN(c6ccc(C7CCC(=O)NC7=O)cc6)C5)CC4)c3)n2)c1F (mixture of isomers) is ___
> 500 nM

// query DC50 value for entry CCCS(=O)(=O)Nc1cccc(-c2cn(-c3ccc(N4CCN(CC5CCN(c6ccc(C7CCC(=O)NC7=O)c(F)c6)CC5)CC4)cc3)nc2-c2ccncc2)c1F (racemic)
10 to 50 nM

Param item = CCN(C)S(=O)(=O)Nc1cccc(-c2nc(C(C)(C)C)sc2-c2ccnc(Nc3ccc(N4CCN(CC5CCN(c6ccc([C@H]7CCC(=O)NC7=O)cc6)CC5)CC4)cn3)n2)c1F ; retrieve measured DC50.
> 500 nM

Query: DC50; subject: CCN(C)S(=O)(=O)Nc1cccc(-c2nc(C(C)(C)C)sc2-c2ccnc(Nc3ccc(N4CCN(CC5CCN(c6ccc(C7CCC(=O)NC7=O)cn6)CC5)CC4)cn3)n2)c1F (racemic)
< 10 nM

Need DC50, item CCCS(=O)(=O)Nc1cccc(-c2nc(C(C)(C)C)sc2-c2ccnc(Nc3ccc(C4CCN(C(=O)CN5CCN(c6cc(C7CCC(=O)NC7=O)ccn6)CC5)CC4)cc3)n2)c1F (racemic)
> 500 nM

Query (molecule): CCCS(=O)(=O)Nc1cccc(-c2nc(C(C)(C)C)sc2-c2ccnc(Nc3ccc(N4CCN(CC5CCN(c6ccc(C7CCC(=O)NC7=O)cn6)CC5)CC4)c(F)c3)n2)c1F (racemic) ; field requested: DC50
10 to 50 nM

More entries:
Need DC50 of CCCS(=O)(=O)Nc1cccc(-c2nc(C3CCN(C(=O)C4(C)CCN(C(=O)C5CCN(c6ccc(C7CCC(=O)NC7=O)cc6)CC5)CC4)CC3)sc2-c2ccnc(NC(C)C)n2)c1F (racemic) , thanks.
< 10 nM

Returns the measured DC50 for the input molecule. Input: CCCS(=O)(=O)Nc1cccc(-c2nc(C3CCN(C(=O)C4CCN(C(=O)C5(C)CCN(c6ccc(C7CCC(=O)NC7=O)cn6)CC5)CC4)CC3)sc2-c2ccnc(N)n2)c1F (racemic)
< 10 nM

What measured DC50 goes with CCCS(=O)(=O)Nc1cccc(-c2nc(C(C)(C)C)sc2-c2ccnc(Nc3ccc4c(c3)CCN(C(=O)CN3CCC(c5ccc(NC6CCC(=O)NC6=O)cc5)CC3)C4)n2)c1F (racemic) ?
> 500 nM
